Listed here are molecules together with their documented IC50.
Target: Rat M4 (Rattus norvegicus, UniProt P08485)
Sequence (P08485 whole entry): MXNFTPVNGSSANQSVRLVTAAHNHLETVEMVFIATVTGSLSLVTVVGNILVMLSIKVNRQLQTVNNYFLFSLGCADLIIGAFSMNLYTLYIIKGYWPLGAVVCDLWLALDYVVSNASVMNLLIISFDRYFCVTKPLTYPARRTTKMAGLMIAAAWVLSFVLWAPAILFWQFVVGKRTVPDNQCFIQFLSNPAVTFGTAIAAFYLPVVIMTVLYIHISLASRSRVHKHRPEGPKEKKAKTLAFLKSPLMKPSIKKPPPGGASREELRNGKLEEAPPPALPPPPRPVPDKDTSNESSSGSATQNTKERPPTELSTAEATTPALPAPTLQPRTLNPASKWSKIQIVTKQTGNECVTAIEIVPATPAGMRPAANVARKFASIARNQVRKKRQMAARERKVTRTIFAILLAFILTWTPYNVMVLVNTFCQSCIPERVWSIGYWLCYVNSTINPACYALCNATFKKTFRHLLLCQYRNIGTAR
Assay: mAChR M4 cell-based functional assay (calcium flux, rat M4/Gqi5/CHO cells)
Conditions: antagonist mode, decrease of the response to an EC80 concentration of acetylcholine; CHO-K1 cells with Gqi5
Method: Human or rat M4 cDNA, along with the chimeric G protein Gqi5, were transfected into Chinese hamster ovary (CHO-K1) cells purchased from the American Type Culture Collection using Lipofectamine2000. […] Calcium flux was measured using the Functional Drug Screening System (FDSS) 6000 or 7000 (Hamamatsu Corporation, Tokyo, Japan) as an increase in the fluorescent static ratio. […] Agonist activity was analyzed as a concentration-dependent increase in calcium mobilization upon compound addition. […]
Write the value in nM as a bare number.

Consider the worked cases shown below.
molecule	quantity measured	value reported
Cc1cnn(C)c1-c1ccc(N2CC[C@@H]3CN(CC45CC6CC(CC(C6)C4)C5)C[C@@H]32)nn1 [Compound 21]	IC50	601
Cc1nn(C)c(C)c1-c1ccc(N2CCC3CN(CC45CC6CC(CC(C6)C4)C5)CC32)nn1 (centres unmarked) [Compound 19]	IC50	365
Cc1nn(C)cc1-c1ccc(N2CCC3CN(CC45CC6CC(CC(C6)C4)C5)CC32)nn1 (centres unmarked) [Compound 16]	IC50	753
Cc1cnn(C)c1-c1ccc(N2CCC3CN(CC45CC6CC(CC(C6)C4)C5)CC32)nn1 (centres unmarked) [Compound 1]	IC50	509
Cc1cnn(C)c1-c1ccc(N2CCC3CN(CC4CC5C=CC4C5)CC32)nn1 (centres unmarked) [Compound 3]	IC50	3570

Quick one: IC50 for Cc1cnn(C)c1-c1ccc(N2CCC3CN(CC4C5CC6CC(C5)CC4C6)CC32)nn1 (centres unmarked) [Compound 10] ?
1890

Recorded IC50 of Cc1cnn(C)c1-c1ccc(N2CCC3CN(CCCC(C)(C)C)CC32)nn1 (centres unmarked) [Compound 2] , please.
1500

Which value of IC50 has been reported for Cc1cnn(C)c1-c1ccc(N2CCC3CN(CCC(C)c4ccccc4)CC32)nn1 (centres unmarked) [Compound 9] in the records?
2330

What does the record list as IC50 for CCc1ccncc1-c1ccc(N2CCC3CN(CC45CC6CC(CC(C6)C4)C5)CC32)nn1 (centres unmarked) [Compound 15] ?
1710

* * *

Molecular target: Rat M4 (Rattus norvegicus)
Experiment: mAChR M4 cell-based functional assay (calcium flux, rat M4/Gqi5/CHO cells)
Conditions: antagonist mode, decrease of the response to an EC80 concentration of acetylcholine; CHO-K1 cells with Gqi5
quantity measured: IC50

Before answering, review these 4 worked examples.
molecule	IC50
Cc1cccnc1CN1CC2CCN(c3ccc(-c4c(C)cnn4C)nn3)C2C1 (centres unmarked) [Compound 4]	> 10 µM
Fc1ccc(-c2ccc(N3CCC4CN(CC56CC7CC(CC(C7)C5)C6)CC43)nn2)c(Cl)c1 (centres unmarked) [Compound 18]	> 10 µM
Cc1cnn(C)c1-c1ccc(N2CC[C@H]3CN(CC45CC6CC(CC(C6)C4)C5)C[C@H]32)nn1 [Compound 23]	0.326 µM
Cc1cnn(C)c1-c1ccc(N2CCC3CN(CC(c4ccccc4)c4ccccc4)CC32)nn1 (centres unmarked) [Compound 14]	> 10 µM

Shift focus to the following entry.
What does the data say about its IC50? Entry: CC/C=C\CCCN1CC2CCN(c3ccc(-c4c(C)cnn4C)nn3)C2C1 (centres unmarked) [Compound 12]
> 10 µM
